- target.entity: Luciferin 4-monooxygenase (Photinus pyralis) (UniProt P08659)
- Sequence (P08659 whole entry, looked up): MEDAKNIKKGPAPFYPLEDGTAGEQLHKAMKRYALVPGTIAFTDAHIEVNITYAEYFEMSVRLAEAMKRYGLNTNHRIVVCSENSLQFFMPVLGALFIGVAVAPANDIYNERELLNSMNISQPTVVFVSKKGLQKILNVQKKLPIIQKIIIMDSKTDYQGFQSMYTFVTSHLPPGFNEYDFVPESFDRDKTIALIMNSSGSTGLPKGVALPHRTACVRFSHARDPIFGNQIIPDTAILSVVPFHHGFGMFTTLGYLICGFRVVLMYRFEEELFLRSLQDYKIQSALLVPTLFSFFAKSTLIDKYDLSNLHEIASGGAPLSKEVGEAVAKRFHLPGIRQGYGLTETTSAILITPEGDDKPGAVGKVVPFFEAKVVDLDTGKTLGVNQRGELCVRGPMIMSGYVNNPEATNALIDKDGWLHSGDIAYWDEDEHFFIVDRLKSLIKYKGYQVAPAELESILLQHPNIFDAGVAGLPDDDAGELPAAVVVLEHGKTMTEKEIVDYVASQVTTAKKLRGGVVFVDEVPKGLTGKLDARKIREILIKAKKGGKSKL
- assay.text: firefly luciferase enzyme inhibitors, primary screen, artefact control for luciferase-based inhibitor screens, biochemical, luminescence, ATPLite (AID 1006)
- experimental.setup: 10 min, at 10 µM
The whole screen tested about 200,000 compounds, of which about 3,000 (1.5%) were called active.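 The calls were made as follows: active = inhibition above about 50% when tested at 10 µM (limit read from the data); inactive = the rest.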 The list comes from a sample in which actives are over-represented; it also holds close analogues and randomly drawn compounds.
Outcome codes: yes (1) for active, no (0) for inactive

{"columns": ["structure.smiles", "group.label"],
 "data": [
  ["Cc1ccc(S(=O)(=O)/N=C(/Nc2ccccn2)c2ccc(Cl)cc2)cc1", "no (0)"],
  ["CCc1cc2c(=O)c(-c3nc4ccccc4n3C)c(CCCC(=O)O)oc2cc1OC(=O)C(C)(C)C", "no (0)"],
  ["CC(=O)Nc1ccc(-c2cn3cccnc3n2)cc1", "no (0)"],
  ["COc1ccc(/C=C/C(=O)Nc2ccc3c(c2)OCCO3)cc1OC", "no (0)"],
  ["Cc1cccc(NC(=O)/C=C/c2ccc3c(c2)OCO3)n1", "yes (1)"],
  ["CCCn1c(=O)c(-c2ccccc2)c(O)c2ccccc21", "no (0)"],
  ["CC(C)c1cc(C(N)=O)c(NC(=O)c2cccc(COc3ccc(Br)cc3)c2)s1", "no (0)"],
  ["CCc1cc2c(=O)c(-c3ccc(F)cc3)c(C(F)(F)F)oc2cc1OCC(=O)O", "no (0)"],
  ["O=C(Cc1cccs1)Nc1nnc(C2CC2)s1", "no (0)"],
  ["Cc1ccc2[nH]c(C(=O)O)c(NC(=O)c3ccccc3[N+](=O)[O-])c2c1", "no (0)"],
  ["CCc1c(C)sc(NC(=O)/C=C/c2ccc3c(c2)OCO3)c1C(=O)OC", "no (0)"],
  ["Cc1ccc2nc(-c3cccc(Br)c3)cc(C(=O)Nn3cnnc3)c2c1", "yes (1)"],
  ["Cc1ccc(-c2nc(-c3cccnc3)sc2CC(=O)Nc2ccc(C)c(Cl)c2)cc1", "no (0)"],
  ["O=C(O)CCCCOn1ccnc1", "no (0)"],
  ["c1ccc2[nH]c(-c3nc4ccccc4[nH]3)nc2c1", "yes (1)"],
  ["COC(=O)c1cccnc1NC(=S)NC(C)C", "no (0)"],
  ["CCOc1ccc(OCc2cccc(C(=O)N(CC)CC)c2)cc1", "yes (1)"],
  ["COc1cc(OC)cc(-c2nc(=S)n3ccsc3n2)c1", "no (0)"],
  ["CCN(CC)C(=O)c1ccc(O)c(OC)c1", "no (0)"],
  ["CCOc1ccc(Nc2nc(Cl)nc(N3CCN(c4ccc(OC)cc4)CC3)n2)cc1", "no (0)"],
  ["COc1cccc(-c2nc(S(=O)(=O)c3ccccc3)c(N3CCOCC3)o2)c1", "no (0)"],
  ["Cc1ccc(-n2c(C)cc(C(=O)CN3C(=O)C(=O)N(C4CCCC4)C3=O)c2C)cc1", "no (0)"],
  ["O=C(CSc1ccccc1)Nc1ccc(C(=O)Nc2cccc(O)c2)cc1", "no (0)"],
  ["Cc1ccc(-c2cc(C(=O)NCc3cn(C)nc3C)c3cc(Br)ccc3n2)cc1", "no (0)"],
  ["O=C(C1=C[C@H](c2coc3ccccc3c2=O)C[C@H](OCc2ccc(CO)cc2)O1)N1CCN(Cc2ccccc2)CC1", "no (0)"],
  ["CCN(CC)c1ccc([N+](=O)[O-])cc1C(=O)O", "no (0)"],
  ["COc1ccc2oc(-c3cccc(NC(=O)CSc4ccc(Cl)cc4)c3)nc2c1", "no (0)"],
  ["CC(=O)c1cc(-c2ccccc2)n(CCC(=O)NC2CCCCCC2)c1C", "no (0)"],
  ["Cc1ccc(Oc2ccc3c(c2)C(=O)N(c2cccc4cccnc24)C3=O)cc1", "no (0)"],
  ["COc1ccc(-n2nnnc2-c2nc3ccccc3s2)cc1", "yes (1)"],
  ["CCN(CC)S(=O)(=O)c1cc(C(=O)Nc2ccccn2)ccc1C", "yes (1)"],
  ["O=C(/C=C\\c1cn(-c2ccccc2)nc1-c1cccs1)N1CCOCC1", "no (0)"],
  ["CCCC(=O)Nc1cccc(-c2cn3ccsc3n2)c1", "no (0)"],
  ["Cc1nc(N2CCOCC2)sc1C(=O)NN", "no (0)"],
  ["CC(=O)n1c(C=Nc2ccccc2)c(O)c2ccccc21", "yes (1)"],
  ["CN(c1ccc2nc3ccccc3c(=O)n2n1)C1CCCCC1", "yes (1)"],
  ["COc1ccc(OCc2cccc(C(=O)N3CCCC3)c2)cc1", "yes (1)"],
  ["COc1cc(/C=N/NC(=O)CCc2n[nH]c(=O)[nH]c2=O)ccc1O", "no (0)"],
  ["Cc1cc(N/N=C/c2ccccc2F)c2ccccc2n1", "no (0)"],
  ["c1ccc(-c2[nH]ncc2-c2nc3ccccc3[nH]2)cc1", "no (0)"],
  ["O=[N+]([O-])c1ccc2oc(-c3cccc(O)c3)nc2c1", "yes (1)"],
  ["COc1ccc(-n2nnnc2SCC(=O)Nc2ccccc2)cc1", "no (0)"],
  ["CCOc1ccc(N=Cc2c(O)n(-c3cccc(C)n3)c(=O)c3ccccc23)cc1", "no (0)"],
  ["COc1ccc(-c2cn3cccnc3n2)cc1", "yes (1)"],
  ["COc1ccc(OC)c(/C=C/C(=O)OCC(=O)Nc2ccc3c(c2)OCCO3)c1", "no (0)"],
  ["CCN(CC)CCNC(=O)c1ccc(NC(=O)c2c(F)cccc2Cl)cc1", "no (0)"]
]}
